Target: IRAK4 (Homo sapiens, UniProt Q9NWZ3)
Sequence (Q9NWZ3 whole entry): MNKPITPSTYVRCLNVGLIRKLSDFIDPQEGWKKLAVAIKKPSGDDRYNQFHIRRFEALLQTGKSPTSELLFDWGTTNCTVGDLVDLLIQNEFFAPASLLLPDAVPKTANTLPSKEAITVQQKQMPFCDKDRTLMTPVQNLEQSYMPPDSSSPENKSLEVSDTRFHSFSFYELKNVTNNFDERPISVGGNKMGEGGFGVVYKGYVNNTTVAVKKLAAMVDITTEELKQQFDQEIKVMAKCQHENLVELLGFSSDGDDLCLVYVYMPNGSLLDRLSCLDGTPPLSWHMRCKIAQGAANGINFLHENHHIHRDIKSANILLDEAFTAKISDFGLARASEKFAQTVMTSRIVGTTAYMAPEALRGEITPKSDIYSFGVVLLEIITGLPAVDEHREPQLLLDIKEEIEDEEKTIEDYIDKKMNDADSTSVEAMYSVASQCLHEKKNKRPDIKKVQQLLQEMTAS
Assay: 2-hour 10 μM ATP Biochemical Assay (MesoScale Detection format; IRAK4 phosphorylation of biotin labeled IRAK1 activation loop peptide)
Conditions: IRAK4 MSD BIOCHEMICAL (10 μM ATP) IC50 (μM), 1 nM IRAK4, 2 hours
Where a name gives a salt, the structure may show the parent alone.
property_name: IC50

>  <molecule>
CCOc1cc2nc(CC3CCOC3)cn2cc1NC(=O)c1cccn(C)c1=O (stereo not drawn) [Example 373]

>  <property_name>
IC50

>  <test_value>
0.008 µM

$$$$
>  <molecule>
CCOc1cc2nc(CCCOC)cn2cc1NC(=O)c1cccc(OC)n1 [Example 524]

>  <property_name>
IC50

>  <test_value>
0.004 µM

$$$$
>  <molecule>
COc1cc(NC(=O)c2cccc(C(F)F)n2)cn2cc(CC3CCOC3)nc12 (stereo not drawn) [Example 411]

>  <property_name>
IC50

>  <test_value>
0.003 µM

$$$$
>  <molecule>
CCOc1cc2nc(C3CCOC(C)(C)C3)cn2cc1NC(=O)c1cccc(C(F)(F)F)n1 (stereo not drawn) [Example 113]

>  <property_name>
IC50

>  <test_value>
0.001 µM

$$$$
>  <molecule>
CCOc1cc2nc(C3CC3)cn2cc1NC(=O)c1cccc2c1OCC2 [Example 119]

>  <property_name>
IC50

>  <test_value>
0.009 µM

$$$$
>  <molecule>
CCOc1cc2nc(CC)cn2cc1NC(=O)c1ccc2c(c1)CCOC2 [Example 47]

>  <property_name>
IC50

>  <test_value>
1.1 µM

$$$$
>  <molecule>
CCOc1cc2nc([C@H](C)[C@@H]3CCOC3)cn2cc1NC(=O)c1cccc(C(F)(F)F)n1 (single isomer, unassigned) [Example 138]

>  <property_name>
IC50

>  <test_value>
0.001 µM

$$$$
>  <molecule>
CCOc1cc(NC(=O)c2cccc(C(F)F)n2)cn2cc(C3CCOCC3)nc12 [Example 413]

>  <property_name>
IC50

>  <test_value>
0.005 µM

$$$$
>  <molecule>
CCOc1cc2nc(C3CCOCC3)cn2cc1NC(=O)c1cccc(OC(C)C)n1 [Example 220]

>  <property_name>
IC50

>  <test_value>
0.004 µM

$$$$
>  <molecule>
O=C(Nc1cn2cc(C3CCOCC3)nc2cn1)c1cccc(C(F)F)n1 [Example 330]

>  <property_name>
IC50

>  <test_value>
0.023 µM

$$$$
>  <molecule>
CC(C)Oc1c(NC(=O)c2cnn3cccnc23)cn2cc(C34COC(C)(C3)C4)nc2c1F [Example 577]

>  <property_name>
IC50

>  <test_value>
0.003 µM

$$$$
>  <molecule>
CCOc1cc2nc(C3(OC)CC3)cn2cc1NC(=O)c1cccc(C(F)F)n1 [Example 128]

>  <property_name>
IC50

>  <test_value>
0.002 µM

$$$$
>  <molecule>
CCOc1nc2nc(C3CCOCC3)cn2cc1NC(=O)c1cccc(C(F)F)n1 [Example 372]

>  <property_name>
IC50

>  <test_value>
0.001 µM

$$$$
>  <molecule>
Cc1cc(NC(=O)c2cccc(C(F)F)n2)cn2cc(C3CCOCC3)nc12 [Example 410, 2,2,2-trifluoroacetate]

>  <property_name>
IC50

>  <test_value>
0.011 µM

$$$$
>  <molecule>
CCOc1cc2nc(C3C[C@@H](C)O[C@@H](C)C3)cn2cc1NC(=O)c1cccc(C(F)(F)F)n1 (relative stereo) [Example 250]

>  <property_name>
IC50

>  <test_value>
0.001 µM

$$$$
>  <molecule>
CCOc1cc2nc(CCC(F)F)cn2cc1NC(=O)c1cccc(C(F)F)n1 [Example 110]

>  <property_name>
IC50

>  <test_value>
0.001 µM

$$$$
>  <molecule>
CCOc1cc2nc(CN3CCCC3=O)cn2cc1NC(=O)c1cccc(C(F)F)n1 [Example 85]

>  <property_name>
IC50

>  <test_value>
0.002 µM

$$$$
>  <molecule>
CCOc1cc2nc(CCCOC)cn2cc1NC(=O)c1ccn(C(F)F)n1 [Example 88]

>  <property_name>
IC50

>  <test_value>
0.003 µM

$$$$
>  <molecule>
CCOc1cc2nc([C@@H](C)[C@@H]3CCOC3)cn2cc1NC(=O)c1cccc(C(F)(F)F)n1 (single isomer, unassigned) [Example 140]

>  <property_name>
IC50

>  <test_value>
0.001 µM

$$$$
>  <molecule>
CCOc1cc2nc(C(=O)N(C)C)cn2cc1NC(=O)c1cccc(C(F)F)n1 [Example 108]

>  <property_name>
IC50

>  <test_value>
0.011 µM

$$$$
>  <molecule>
CCOc1cc2nc(C3CC3)cn2cc1NC(=O)c1cc2ncccn2n1 [Example 53]

>  <property_name>
IC50

>  <test_value>
0.11 µM

$$$$
>  <molecule>
CCOc1cc2nc(C3CCCC(OC)C3)cn2cc1NC(=O)c1cccc(C(F)F)n1 (stereo not drawn) [Example 256]

>  <property_name>
IC50

>  <test_value>
0.001 µM

$$$$
>  <molecule>
CCOc1cc2nc(C3CCN(C(C)=O)CC3)cn2cc1NC(=O)c1cccc(C(F)(F)F)n1 [Example 72]

>  <property_name>
IC50

>  <test_value>
0.001 µM

$$$$
>  <molecule>
CN(C)CCOc1cc2nc(C3CCOCC3)cn2cc1NC(=O)c1cccc(C(F)F)n1 [Example 148]

>  <property_name>
IC50

>  <test_value>
0.023 µM

$$$$
>  <molecule>
COc1nc(NC(=O)c2ccn(C)n2)cn2cc(C3CCOCC3)nc12 [Example 461, Hydrochloride]

>  <property_name>
IC50

>  <test_value>
0.033 µM

$$$$
>  <molecule>
CCOc1cc2nc([C@]34CCOC[C@H]3C4)cn2cc1NC(=O)c1cccc(C(F)F)n1 (relative stereo) [Example 249]

>  <property_name>
IC50

>  <test_value>
0.001 µM

$$$$
>  <molecule>
CCOc1cc2nc(CCCO)cn2cc1NC(=O)c1cccc(C(F)F)n1 [Example 23]

>  <property_name>
IC50

>  <test_value>
0.001 µM

$$$$
>  <molecule>
CCOc1cc2nc(CC)cn2cc1NC(=O)c1cccc(C(F)(F)F)n1 [Example 1]

>  <property_name>
IC50

>  <test_value>
0.003 µM

$$$$
>  <molecule>
CCOc1cc2nc(C3CCN(C)C3=O)cn2cc1NC(=O)c1cccc(C(F)F)n1 (stereo not drawn) [Example 156]

>  <property_name>
IC50

>  <test_value>
0.001 µM

$$$$
>  <molecule>
CCOc1nc2nc(CCCOC)cn2cc1NC(=O)c1cccc(C(F)F)n1 [Example 242]

>  <property_name>
IC50

>  <test_value>
0.001 µM

$$$$
>  <molecule>
CCOc1cc2nc(C3CN(CCOC)C3)cn2cc1NC(=O)c1cccc(C(F)F)n1 [Example 80]

>  <property_name>
IC50

>  <test_value>
0.002 µM

$$$$
>  <molecule>
CCOc1cc2nc(CC)cn2cc1NC(=O)c1ccc(C)c(C)n1 [Example 34]

>  <property_name>
IC50

>  <test_value>
0.023 µM

$$$$
>  <molecule>
CCOc1cc2nc(CC)cn2cc1NC(=O)c1ccc2c(c1)NC(=O)C2 [Example 41]

>  <property_name>
IC50

>  <test_value>
0.14 µM

$$$$
